- CONDITIONS USED: in p-xylene, 288.55 K
PROPERTY LABEL: solubility (mole fraction)

# solubility (mole fraction) (compound: `COc1cc(Cl)c(OC)cc1N` ) is 0.00855

----------
- CONDITIONS USED: in m-xylene, 277.05 K
PROPERTY LABEL: solubility (mole fraction)

# solubility (mole fraction) (compound: `COc1cc([N+](=O)[O-])c(OC)cc1Cl` ) is 0.00728

----------
- CONDITIONS USED: in o-xylene, 296.25 K
PROPERTY LABEL: solubility (mole fraction)
API note: the answer field is a bare number with no unit suffix.

# solubility (mole fraction) (compound: `COc1cc([N+](=O)[O-])c(OC)cc1Cl` ) is 0.0174

----------
- CONDITIONS USED: in toluene, 299.65 K
PROPERTY LABEL: solubility (mole fraction)
API note: the answer field is a bare number with no unit suffix.

# solubility (mole fraction) (molecule: `COc1cc(Cl)c(OC)cc1N` ) is 0.0194

----------
- CONDITIONS USED: in p-xylene, 329.55 K
PROPERTY LABEL: solubility (mole fraction)
API note: the answer field is a bare number with no unit suffix.

# solubility (mole fraction) (compound: `COc1cc(Cl)c(OC)cc1N` ) is 0.0539

----------
- CONDITIONS USED: in ethanol, 295.75 K
PROPERTY LABEL: solubility (mole fraction)
API note: the answer field is a bare number with no unit suffix.

# solubility (mole fraction) (compound: `COc1cc([N+](=O)[O-])c(OC)cc1Cl` ) is 0.00109

----------
- CONDITIONS USED: in o-xylene, 335.25 K
PROPERTY LABEL: solubility (mole fraction)
API note: the answer field is a bare number with no unit suffix.

# solubility (mole fraction) (molecule: `COc1cc([N+](=O)[O-])c(OC)cc1Cl` ) is 0.0719

----------
- CONDITIONS USED: in o-xylene, 313.65 K
PROPERTY LABEL: solubility (mole fraction)
API note: the answer field is a bare number with no unit suffix.

# solubility (mole fraction) (compound: `COc1cc(Cl)c(OC)cc1N` ) is 0.0298

----------
- CONDITIONS USED: in ethanol, 291.45 K
PROPERTY LABEL: solubility (mole fraction)
API note: the answer field is a bare number with no unit suffix.

# solubility (mole fraction) (molecule: `COc1cc([N+](=O)[O-])c(OC)cc1Cl` ) is 0.000892

----------
- CONDITIONS USED: in methanol, 296.65 K
PROPERTY LABEL: solubility (mole fraction)
API note: the answer field is a bare number with no unit suffix.

# solubility (mole fraction) (molecule: `COc1cc(Cl)c(OC)cc1N` ) is 0.00634

----------
- CONDITIONS USED: in o-xylene, 303.25 K
PROPERTY LABEL: solubility (mole fraction)
API note: the answer field is a bare number with no unit suffix.

# solubility (mole fraction) (molecule: `COc1cc(Cl)c(OC)cc1N` ) is 0.0184

----------
- CONDITIONS USED: in m-xylene, 321.25 K
PROPERTY LABEL: solubility (mole fraction)
API note: the answer field is a bare number with no unit suffix.

# solubility (mole fraction) (compound: `COc1cc(Cl)c(OC)cc1N` ) is 0.0386

Data origin, for the record: BigSolDB 2.1
